Just for reference, ChEMBL document CHEMBL4400548 is where these values come from.

tested on: Ebolavirus; assay: Antiviral activity against HIV-1-derived Ebolavirus pseudoparticle infected in human TZM-bl cells after 48 hrs by beta-gal based reporter assay; type: functional, organism-based; details: Orthoebolavirus
outcome-measure: pIC50
pIC50 is a log-scale quantity: -log10 of the concentration expressed in molar.

Answered examples (2):
# compound, outcome-measure, measured
data = [
    ("CN(C)CCOc1ccc(/C(=C(/CCCl)c2ccccc2)c2ccccc2)cc1 [TOREMIFENE]", "pIC50", 7.05),
    ("NC(=O)C1CCN(CCOc2ccc(-c3n[nH]cc3-c3ccccc3)c(O)c2)CC1", "pIC50", 5.51),
]

Please look at the following compound next.
Query string: Which value of pIC50 has been reported for "Cc1[nH]nc(-c2ccc(OCCN3CCC(C(N)=O)CC3)cc2O)c1-c1ccc(Cl)cc1" in the records?
Result string: 7.30
